Let's look at some molecules and their measured IC50.
Molecular target: human proteinase 3 (Homo sapiens)
Sequence (P24158 28-248): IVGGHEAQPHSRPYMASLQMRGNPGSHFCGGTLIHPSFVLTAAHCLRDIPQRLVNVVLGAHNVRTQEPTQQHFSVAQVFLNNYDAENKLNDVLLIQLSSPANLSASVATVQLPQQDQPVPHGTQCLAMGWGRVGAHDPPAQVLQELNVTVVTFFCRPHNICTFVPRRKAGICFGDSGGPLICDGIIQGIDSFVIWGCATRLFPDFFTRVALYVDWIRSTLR
Where a SMILES comes first, the peptide text is derived from it. [ ]: non-standard residue; d: D form. Gly(octyl) = CCCCCCCC[C@H](N)C(=O)O; N(CH2CH2COOH)Gly = O=C(O)CCNCC(=O)O; β3hK = NCCCC[C@H](N)CC(=O)O; Aze = O=C(O)[C@@H]1CCN1; Dap = NC[C@H](N)C(=O)O
Just the number in µM, nothing appended.

Reference set, count: 4
Exercise: Which value of IC50 has been reported for CCCCCCCC[C@@H]1NC(=O)[C@@H]2CCCN2C(=O)[C@H]2CCCN2C(=O)[C@H]([C@@H](C)O)NC(=O)[C@H](CCCCN)NC(=O)[C@H](CCC(N)=O)NC(=O)CN(CCC(=O)O)C(=O)[C@@H]2CCCN2C(=O)[C@H]([C@@H](C)CC)NC(=O)[C@H](CO)NC(=O)[C@H](C)NC(=O)[C@H]([C@@H](C)O)NC(=O)[C@H](CCC(=O)O)NC1=O [Example 34] (cyclo([Gly(octyl)]ETASIP[N(CH2CH2COOH)Gly]QKT[dP]P)) in the records?
Solution: 5.2

Exercise: IC50 lookup needed for CCCCCCCC[C@@H]1NC(=O)[C@@H]2CCCN2C(=O)[C@H]2CCCN2C(=O)[C@H]([C@@H](C)O)NC(=O)C[C@H](CCCCN)NC(=O)[C@H](CCC(N)=O)NC(=O)[C@@H]2CCCN2C(=O)[C@@H]2CCCN2C(=O)[C@H]([C@@H](C)CC)NC(=O)[C@H](CO)NC(=O)[C@H](C)NC(=O)[C@H]([C@@H](C)O)NC(=O)[C@H](CCC(=O)O)NC1=O [Example 37] (cyclo([Gly(octyl)]ETASIPPQ[β3hK]T[dP]P)) , thanks.
Solution: 15.4

Exercise: GET /values?readout=IC50&item= CCCCCCCC[C@@H]1NC(=O)[C@@H]2CCCN2C(=O)[C@H]2CCCN2C(=O)[C@H](Cc2ccc(O)cc2)NC(=O)[C@H](CCCCN)NC(=O)[C@H](CCC(N)=O)NC(=O)[C@@H]2CCCN2C(=O)[C@@H]2CCCN2C(=O)[C@H]([C@@H](C)CC)NC(=O)[C@H](CO)NC(=O)[C@H](C)NC(=O)[C@H]([C@@H](C)O)NC(=O)[C@H](CNC(=O)[C@@H](N)Cc2ccccc2)NC1=O [Example 14] (cyclo([Gly(octyl)][Dap](Phe)TASIPPQKY[dP]P))
Solution: 26

Exercise: Quick one: IC50 of CCCCCCCC[C@@H]1NC(=O)[C@H](Cc2ccc(O)cc2)NC(=O)[C@@H](CO)NC(=O)[C@H]([C@@H](C)O)NC(=O)[C@H](CCCCN)NC(=O)[C@H](CCC(N)=O)NC(=O)[C@@H]2CCCN2C(=O)[C@@H]2CCCN2C(=O)[C@H]([C@@H](C)CC)NC(=O)[C@H](CO)NC(=O)[C@H](C)NC(=O)[C@H]([C@@H](C)O)NC(=O)[C@H](CCC(=O)O)NC1=O [Example 31] (cyclo([Gly(octyl)]ETASIPPQKT[dS]Y)) ?
Solution: 32.8

***
Exercise: Please look up its IC50: CCCCCCCC[C@@H]1NC(=O)[C@@H]2CCCN2C(=O)[C@H]2CCCN2C(=O)[C@H]([C@@H](C)O)NC(=O)[C@H](CCCCN)NC(=O)[C@H](CCC(N)=O)NC(=O)[C@@H]2CCN2C(=O)[C@@H]2CCCN2C(=O)[C@H]([C@@H](C)CC)NC(=O)[C@H](CO)NC(=O)[C@H](C)NC(=O)[C@H]([C@@H](C)O)NC(=O)[C@H](CCC(=O)O)NC1=O [Example 46] (cyclo([Gly(octyl)]ETASIP[Aze]QKT[dP]P))
Solution: 2.2

The measurements presented in this section are drawn from patent US10273267B2.
